Provenance of the data: PubChem BioAssay (NCI)

Please provide measured TGI for the entries that follow.
Tested on: TK-10 renal
Assay: NCI tumour cell line growth inhibition, 48 h

Recorded results for 3 compounds are shown here.
CC(C)=C=CC(C)(C)NS(=O)(=O)NC(C)(C)C=C=C(C)C; > 100 µM
CCc1cccc(CC)c1NC(=O)C1=CNC(C)=C(C(=O)Nc2c(CC)cccc2CC)C1c1ccc(O)c(OC)c1 (stereo not drawn); > 100 µM
O=c1ccc2nc3ccc(O)cc3oc-2c1; > 100 µM

List reported TGI for each of these compounds:
1. COc1ccc(/C=C2\CC3C4CC=C5C[C@@H](O)CC[C@]5(C)C4CC[C@]3(C)C2=O)cc1OC (stereo partly drawn)
2. COc1cc2c3c4c1OCc1c5c(cc(c1-4)CC3[N+](C)(C)CC2)OCO5 (stereo not drawn)
3. N#CCCN(CCC#N)c1ccc(/C=C2\N=C(c3ccccc3)N(c3ccccc3)C2=O)cc1
4. Cc1cccc2c(=O)c3c(O)cc4c(c3n(C)c12)C=CC(C)(C)O4
5. COC(=O)c1ccccc1Nc1ccccc1C(=O)OC
6. COC(=O)CCc1c(/C=C2\N=C(c3ccc[nH]3)C=C2OC)[nH]c(C)c1C(=O)OCc1ccccc1
7. CC(C)(C)c1cc2c(O)c(c1)COCc1cc(C(C)(C)C)cc(c1O)COCc1cc(C(C)(C)C)cc(c1O)COC2

Result block:
1: > 100 µM; 2: > 100 µM; 3: > 100 µM; 4: > 100 µM; 5: > 100 µM; 6: 7.05 µM; 7: > 100 µM

###

System: SK-MEL-2 melanoma
Task for the reader: assign each of the following compounds its reported GI50.

NC(N)=NC(N)=NCc1ccco1; > 1250 µM
CN1CCN(Cc2ccc(NC(=O)c3cncc(C#Cc4ncc5ccccn45)c3)cc2C(F)(F)F)CC1; 0.876 µM
COc1cc2c3c(n(CCCN4CCN(CCO)CC4)c(=O)c2cc1OC)-c1cc2c(cc1C3=O)OCO2; > 100 µM
CNCC1CCn2c(c(C3=C(c4cn(C)c5ccccc45)C(=O)NC3=O)c3ccccc32)C1 (configuration not stated); 3.33 µM
O=C1CC2OCC=C3CN4CCC56c7ccccc7N1C5C2C3CC46 (configuration not stated) (tested in a mixture with another compound); > 50 µg/mL

Batch: GI50 for all items listed.
1. CN1CCN(Cc2ccc(NC(=O)c3[nH]ncc3Nc3cc(OC4CCCC4)ncn3)cc2)CC1
2. CC1(C)N=C(N)N=C(N)N1c1ccc(CCC(=O)Nc2cccc(S(=O)(=O)F)c2)cc1
3. CN1C(=O)C(C)(C)Oc2c(-c3cn(C)c(=O)c4[nH]ccc34)cc(S(C)(=O)=O)cc21
4. C=C1C(OCCO)OC2O[C@]3(C)CCC4[C@H](C)CCC1C24OO3 (some centres not stated)
5. O=C1C=C(OCC=C(Cl)Cl)C(=O)c2ccccc21
6. CCN1C(=O)N(CC)C2C1NN=c1s/c(=C\c3cnc(C)n3C)c(=O)n12 (configuration not stated)
7. CC1CC2(C)CC(=O)C1C1C(=O)N(CCN3CCOCC3)C(=O)C12 (configuration not stated)

Result block:
1. 3.75 µM
2. 10.8 µM
3. 1.95 µM
4. 71.1 µM
5. 2.34 µM
6. 1.85 µM
7. > 100 µM

List GI50 for every entry below, keeping the order given.
1. COC(=O)C1=C(O)C(C(=O)OC)[C@@]2(O)[C@@H](C(=O)OC)C(c3ccccc3Cl)C[C@@H]1[C@@H]2C(=O)OC (some centres not stated)
2. CC(=O)N1c2ccc(-c3ccc(C(=O)O)cc3)cc2[C@H](Nc2ccc(Cl)cc2)C[C@@H]1C
3. COc1ccc(-c2cc3c(N)ncnc3o2)cc1
4. Nc1cc(N)c2nc(-c3ccccc3)c(Oc3ccc(Cl)c(Cl)c3)nc2c1
5. COc1ccc(CNC(=O)c2c(C)n([O-])c3cc(F)c(F)cc3[n+]2=O)cc1

Result block:
1: 3.62 µM; 2: 0.581 µM; 3: > 25 µM; 4: 5.63 µM; 5: 15.4 µM
